study target: Transient receptor potential cation channel subfamily V member 1 (Homo sapiens, UniProt Q8NER1)
Sequence (Q8NER1 whole entry): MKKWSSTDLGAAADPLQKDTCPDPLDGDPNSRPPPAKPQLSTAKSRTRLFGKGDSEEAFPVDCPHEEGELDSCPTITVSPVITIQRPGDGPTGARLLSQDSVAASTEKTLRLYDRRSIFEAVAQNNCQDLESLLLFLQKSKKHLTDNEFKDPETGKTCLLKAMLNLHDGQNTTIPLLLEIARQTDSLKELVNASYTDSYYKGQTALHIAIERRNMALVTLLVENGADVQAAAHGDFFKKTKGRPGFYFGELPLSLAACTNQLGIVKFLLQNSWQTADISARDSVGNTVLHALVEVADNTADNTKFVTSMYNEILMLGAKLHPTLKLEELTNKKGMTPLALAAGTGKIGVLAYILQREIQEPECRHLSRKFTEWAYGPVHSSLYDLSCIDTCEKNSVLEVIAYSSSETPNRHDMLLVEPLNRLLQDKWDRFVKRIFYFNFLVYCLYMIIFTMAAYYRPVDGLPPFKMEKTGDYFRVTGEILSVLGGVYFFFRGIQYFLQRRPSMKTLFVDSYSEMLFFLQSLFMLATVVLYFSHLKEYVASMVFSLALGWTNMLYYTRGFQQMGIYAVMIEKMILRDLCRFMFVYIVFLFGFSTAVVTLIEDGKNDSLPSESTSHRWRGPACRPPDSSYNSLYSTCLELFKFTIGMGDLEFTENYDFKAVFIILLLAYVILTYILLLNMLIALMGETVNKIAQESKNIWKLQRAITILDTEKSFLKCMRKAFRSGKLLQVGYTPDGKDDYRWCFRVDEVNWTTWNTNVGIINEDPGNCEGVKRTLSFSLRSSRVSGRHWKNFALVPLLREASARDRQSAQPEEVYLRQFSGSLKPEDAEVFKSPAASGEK
protocol description: Agonist activity at human TRPV1 expressed in HEK293 cells assessed as increase in intracellular calcium level
measured property: EC50

compound="C=C(C)[C@]12C[C@@H](C)[C@@]34O[C@](Cc5ccccc5)(O[C@@H]1[C@@H]3C=C(COC(=O)C(OC(C)=O)c1ccc(O)c(OC)c1)C[C@]1(O)C(=O)C(C)=C[C@@H]41)O2 (some centres not stated)" data_value="0.65 nM"
compound="C=C(C)[C@]12C[C@@H](C)[C@@]34O[C@](Cc5ccccc5)(O[C@@H]1[C@@H]3C=C(COC(=O)C(O)c1ccc(O)c(OC)c1)C[C@]1(O)C(=O)C(C)=C[C@@H]41)O2 (some centres not stated)" data_value="19 nM"
compound=C=C(C)[C@]12C[C@@H](C)[C@@]34O[C@](Cc5ccccc5)(O[C@@H]1[C@@H]3C=C(COC(=O)Oc1cc(I)c(O)c(OC)c1)C[C@]1(O)C(=O)C(C)=C[C@@H]41)O2 data_value="0.0047 nM"
compound=C=C(C(=O)OCC1=C[C@H]2[C@H]3O[C@@]4(Cc5ccccc5)O[C@@]2([C@H](C)C[C@]3(C(=C)C)O4)[C@@H]2C=C(C)C(=O)[C@@]2(O)C1)c1ccc(O)c(OC)c1 data_value="0.15 nM"
compound="C=C(C)[C@]12C[C@@H](C)[C@@]34O[C@](Cc5ccccc5)(O[C@@H]1[C@@H]3C=C(COC(=O)C(OC)c1ccc(O)c(OC)c1)C[C@]1(O)C(=O)C(C)=C[C@@H]41)O2 (some centres not stated)" data_value="17.4 nM"
compound="C=C(C)[C@]12C[C@@H](C)[C@@]34O[C@](Cc5ccccc5)(O[C@@H]1[C@@H]3C=C(COC(=O)C(C)c1ccc(O)c(OC)c1)C[C@]1(O)C(=O)C(C)=C[C@@H]41)O2 (some centres not stated)" data_value="0.98 nM"
compound=C=C(C)[C@]12C[C@@H](C)[C@@]34O[C@](Cc5ccccc5)(O[C@@H]1[C@@H]3C=C(COC(=O)Oc1ccc(O)c(OC)c1)C[C@]1(O)C(=O)C(C)=C[C@@H]41)O2 data_value="13.7 nM"
